target: EPHA7A (Homo sapiens, UniProt Q15375); construct: purchased in-house DSF kinase panel (SGC-style construct names; the trailing letter is the construct ID); assay: DSF Tm panel; assay type: binding; conditions: 10 μM compound
Sequence (Q15375 590-899): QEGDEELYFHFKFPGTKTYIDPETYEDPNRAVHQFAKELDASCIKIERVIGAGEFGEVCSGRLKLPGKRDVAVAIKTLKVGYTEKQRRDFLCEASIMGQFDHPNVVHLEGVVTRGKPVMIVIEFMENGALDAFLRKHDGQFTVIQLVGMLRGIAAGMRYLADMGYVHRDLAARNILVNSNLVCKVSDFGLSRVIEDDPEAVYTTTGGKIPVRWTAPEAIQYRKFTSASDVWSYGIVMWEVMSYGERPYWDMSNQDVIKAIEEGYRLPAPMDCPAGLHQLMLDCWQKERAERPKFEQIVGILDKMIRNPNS
Rule: ΔTm at 10 µM below 1 °C gives TRUE, anything at or above gives FALSE.

1. CN1CCN(C(=O)Nc2ccc3cc2OCCOCCNc2ccn4ncc-3c4n2)CC1 ... TRUE

# TODO verify ΔTm at 10 µM < 1 °C strictly for this compound: `O=C(NCc1ccccc1)Nc1ccc2cc1OCCOCCNc1ccn3ncc-2c3n1`
TRUE

hey, is ΔTm at 10 µM for `C[C@H](NC(=O)Nc1ccc2cc1OCCOCCNc1ccn3ncc-2c3n1)c1ccccc1` lower than 1 °C or not?
FALSE

Lab note: confirm whether the reported ΔTm at 10 µM for this compound is below 1 °C, equality not counting. compound: `COc1ccccc1CNC(=O)Nc1ccc2cc1OCCOCCNc1ccn3ncc-2c3n1`
FALSE

----------
Target: PHKG2A (Homo sapiens)
Construct: purchased in-house DSF kinase panel (SGC-style construct names; the trailing letter is the construct ID)
Sequence (P15735 6-293): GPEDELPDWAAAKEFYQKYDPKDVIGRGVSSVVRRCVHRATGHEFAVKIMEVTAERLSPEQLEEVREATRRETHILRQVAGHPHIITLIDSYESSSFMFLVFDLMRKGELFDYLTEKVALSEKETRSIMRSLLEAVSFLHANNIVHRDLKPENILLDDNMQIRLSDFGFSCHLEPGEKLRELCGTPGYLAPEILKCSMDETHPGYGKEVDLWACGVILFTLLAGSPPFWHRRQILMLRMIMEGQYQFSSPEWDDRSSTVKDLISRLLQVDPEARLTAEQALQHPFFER
Assay: DSF Tm panel
Format: binding
Conditions: 10 μM compound
Reported Property: ΔTm at 10 µM
Please answer using the number first and the unit second.

1. CN1CCN(C(=O)Nc2ccc3cc2OCCOCCNc2ccn4ncc-3c4n2)CC1 [compound 35] ... -0.1 °C
2. O=C(NCc1cccc(Cl)c1)Nc1ccc2cc1OCCOCCNc1ccn3ncc-2c3n1 [compound 18] ... 0.4 °C
3. O=C(NCc1ccc(Cl)cc1Cl)Nc1ccc2cc1OCCOCCNc1ccn3ncc-2c3n1 [compound 20] ... 0.8 °C
4. O=C(NCc1ccccc1Cl)Nc1ccc2cc1OCCOCCNc1ccn3ncc-2c3n1 [compound 17] ... 0.6 °C
5. Cc1cc(Cl)ccc1CNC(=O)Nc1ccc2cc1OCCOCCNc1ccn3ncc-2c3n1 [compound 23] ... 0.5 °C

Need ΔTm at 10 µM of O=C(NCc1ccccc1)Nc1ccc2cc1OCCOCCNc1ccn3ncc-2c3n1 [compound 16] , thanks.
1.3 °C

Field request: ΔTm at 10 µM | item: O=C(NCc1ccc(Cl)cc1)Nc1ccc2cc1OCCOCCNc1ccn3ncc-2c3n1 [compound 19]
1.2 °C

Return reported ΔTm at 10 µM; argument: O=C(NCc1ccc(Cl)cc1F)Nc1ccc2cc1OCCOCCNc1ccn3ncc-2c3n1 [compound 21]
0.9 °C

----------
target: FGFR1B (Homo sapiens, UniProt P11362); construct: purchased in-house DSF kinase panel (SGC-style construct names; the trailing letter is the construct ID); assay: DSF Tm panel; format: binding; conditions: 10 μM compound
Sequence (P11362 456-767): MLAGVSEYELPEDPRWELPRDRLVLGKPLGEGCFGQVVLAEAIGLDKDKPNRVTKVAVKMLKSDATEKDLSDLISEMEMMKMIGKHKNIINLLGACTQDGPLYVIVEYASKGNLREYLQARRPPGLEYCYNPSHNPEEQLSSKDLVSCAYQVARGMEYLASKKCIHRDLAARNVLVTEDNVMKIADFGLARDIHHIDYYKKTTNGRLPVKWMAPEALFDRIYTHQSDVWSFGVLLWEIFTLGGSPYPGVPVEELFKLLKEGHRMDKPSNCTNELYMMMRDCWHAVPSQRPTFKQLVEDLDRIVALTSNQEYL
Reported Property: ΔTm at 10 µM
Lab note: write values as number then unit, every time.

These recorded examples may help you get a feel for the data.
1. Cc1cc(Br)ccc1CNC(=O)Nc1ccc2cc1OCCOCCNc1ccn3ncc-2c3n1 ... 1.2 °C
2. Cc1ccc(F)cc1CNC(=O)Nc1ccc2cc1OCCOCCNc1ccn3ncc-2c3n1 ... 1.9 °C
3. COc1cccc(CNC(=O)Nc2ccc3cc2OCCOCCNc2ccn4ncc-3c4n2)c1 ... 1.4 °C

Requested field: ΔTm at 10 µM. Item: `COc1ccc(CNC(=O)Nc2ccc3cc2OCCOCCNc2ccn4ncc-3c4n2)cc1`
1.5 °C

Field request: ΔTm at 10 µM | item: `CN1CCN(C(=O)Nc2ccc3cc2OCCOCCNc2ccn4ncc-3c4n2)CC1`
0.7 °C

Request the reported ΔTm at 10 µM associated with `O=C(NCc1ccccc1Cl)Nc1ccc2cc1OCCOCCNc1ccn3ncc-2c3n1`
0.6 °C

----------
target: TIF1A (Homo sapiens, UniProt O15164); construct: purchased in-house DSF kinase panel (SGC-style construct names; the trailing letter is the construct ID); experiment: DSF Tm panel; format: binding; settings: 10 μM compound
Sequence (O15164 whole entry): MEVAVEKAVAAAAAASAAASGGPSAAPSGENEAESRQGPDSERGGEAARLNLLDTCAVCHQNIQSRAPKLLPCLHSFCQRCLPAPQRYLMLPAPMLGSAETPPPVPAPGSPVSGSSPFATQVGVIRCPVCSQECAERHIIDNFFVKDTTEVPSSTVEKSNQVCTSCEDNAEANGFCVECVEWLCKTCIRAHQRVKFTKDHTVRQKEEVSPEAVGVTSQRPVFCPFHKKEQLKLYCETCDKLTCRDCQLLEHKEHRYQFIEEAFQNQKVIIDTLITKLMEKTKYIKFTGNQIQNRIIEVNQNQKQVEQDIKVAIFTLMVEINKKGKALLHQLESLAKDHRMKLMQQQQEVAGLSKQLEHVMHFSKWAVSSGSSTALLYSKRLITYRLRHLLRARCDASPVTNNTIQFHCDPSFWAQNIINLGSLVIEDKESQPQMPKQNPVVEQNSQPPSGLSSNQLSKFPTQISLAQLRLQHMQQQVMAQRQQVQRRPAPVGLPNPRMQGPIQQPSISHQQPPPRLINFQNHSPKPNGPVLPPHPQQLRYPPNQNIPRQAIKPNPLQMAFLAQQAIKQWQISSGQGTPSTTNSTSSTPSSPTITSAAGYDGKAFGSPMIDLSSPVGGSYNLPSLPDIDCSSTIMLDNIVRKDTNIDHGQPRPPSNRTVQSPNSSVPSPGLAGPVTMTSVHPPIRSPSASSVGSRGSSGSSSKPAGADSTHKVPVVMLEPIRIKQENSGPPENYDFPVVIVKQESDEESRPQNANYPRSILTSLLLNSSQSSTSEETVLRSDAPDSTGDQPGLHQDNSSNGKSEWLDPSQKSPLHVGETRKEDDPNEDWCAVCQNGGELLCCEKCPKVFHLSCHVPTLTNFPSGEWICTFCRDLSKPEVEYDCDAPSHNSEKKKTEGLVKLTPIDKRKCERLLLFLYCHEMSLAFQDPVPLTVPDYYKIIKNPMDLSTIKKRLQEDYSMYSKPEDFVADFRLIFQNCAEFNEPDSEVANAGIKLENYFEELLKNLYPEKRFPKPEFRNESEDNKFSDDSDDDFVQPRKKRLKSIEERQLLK
Reported Property: ΔTm at 10 µM (°C)
# output: bare number, implied unit °C

Tell me the measured ΔTm at 10 µM of O=C(NCc1ccccc1C(F)(F)F)Nc1ccc2cc1OCCOCCNc1ccn3ncc-2c3n1 [compound 27] , please.
1.3

Requested field: ΔTm at 10 µM. Item: COc1cccc(CNC(=O)Nc2ccc3cc2OCCOCCNc2ccn4ncc-3c4n2)c1 [compound 30]
0.3

Param item = Cc1ccc(F)cc1CNC(=O)Nc1ccc2cc1OCCOCCNc1ccn3ncc-2c3n1 [compound 26] ; retrieve measured ΔTm at 10 µM.
0.4

// ΔTm at 10 µM lookup, key: O=C(NCc1ccc(C(F)(F)F)cc1)Nc1ccc2cc1OCCOCCNc1ccn3ncc-2c3n1 [compound 28]
1.6

Fill in the blank: the reported ΔTm at 10 µM of Cc1cc(Br)ccc1CNC(=O)Nc1ccc2cc1OCCOCCNc1ccn3ncc-2c3n1 [compound 24] is ____.
1

----------
target: GSK3BB (Homo sapiens); construct: purchased in-house DSF kinase panel (SGC-style construct names; the trailing letter is the construct ID); assay: DSF Tm panel; assay type: binding; settings: 10 μM compound
Sequence (P49841 35-386): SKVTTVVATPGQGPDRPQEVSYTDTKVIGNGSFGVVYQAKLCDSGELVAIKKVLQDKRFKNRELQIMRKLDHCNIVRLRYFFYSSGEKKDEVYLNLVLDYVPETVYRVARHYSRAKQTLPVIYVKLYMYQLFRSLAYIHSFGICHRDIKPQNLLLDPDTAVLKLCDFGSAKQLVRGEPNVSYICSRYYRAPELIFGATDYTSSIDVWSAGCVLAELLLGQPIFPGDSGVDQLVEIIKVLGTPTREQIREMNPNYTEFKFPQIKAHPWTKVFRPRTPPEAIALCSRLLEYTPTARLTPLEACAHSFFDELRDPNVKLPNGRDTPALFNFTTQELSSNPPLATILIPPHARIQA
Parameter threshold = 0.6 °C. Response is Satisfied when ΔTm at 10 µM meets or exceeds it, else Not satisfied.

1) O=C(NCc1ccccc1Cl)Nc1ccc2cc1OCCOCCNc1ccn3ncc-2c3n1 ... Satisfied
2) C[C@H](NC(=O)Nc1ccc2cc1OCCOCCNc1ccn3ncc-2c3n1)c1ccccc1 ... Satisfied
3) COc1cc(CNC(=O)Nc2ccc3cc2OCCOCCNc2ccn4ncc-3c4n2)ccc1F ... Satisfied
4) O=C(NCc1ccccc1C(F)(F)F)Nc1ccc2cc1OCCOCCNc1ccn3ncc-2c3n1 ... Not satisfied
5) Cc1ccc(F)cc1CNC(=O)Nc1ccc2cc1OCCOCCNc1ccn3ncc-2c3n1 ... Not satisfied

Is ΔTm at 10 µM for `O=C(NCc1cccc(Cl)c1)Nc1ccc2cc1OCCOCCNc1ccn3ncc-2c3n1` at or above 0.6 °C?
Not satisfied

Given `CN1CCN(C(=O)Nc2ccc3cc2OCCOCCNc2ccn4ncc-3c4n2)CC1` , state whether its ΔTm at 10 µM is at least 0.6 °C.
Satisfied

# check: ΔTm at 10 µM of `COc1cccc(CNC(=O)Nc2ccc3cc2OCCOCCNc2ccn4ncc-3c4n2)c1` is greater than or equal to 0.6 °C
Satisfied

----------
target: CDKL1A (Homo sapiens); construct: purchased in-house DSF kinase panel (SGC-style construct names; the trailing letter is the construct ID); experiment: DSF Tm panel; format: binding; conditions: 10 μM compound
Sequence (Q00532 1-303): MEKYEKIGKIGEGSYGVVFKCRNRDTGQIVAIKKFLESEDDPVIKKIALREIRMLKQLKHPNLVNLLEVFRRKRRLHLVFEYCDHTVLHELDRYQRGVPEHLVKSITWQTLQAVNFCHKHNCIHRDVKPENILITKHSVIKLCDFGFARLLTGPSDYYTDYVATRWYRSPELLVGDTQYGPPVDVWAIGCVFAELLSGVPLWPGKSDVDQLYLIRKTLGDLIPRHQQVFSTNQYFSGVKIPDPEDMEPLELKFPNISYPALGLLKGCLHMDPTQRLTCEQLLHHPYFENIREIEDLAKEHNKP
Reported Property: ΔTm at 10 µM (°C)
Enter your answer as a number in °C; do not include the unit.

Illustrative cases are given below, each with its answer.
1. C[C@H](NC(=O)Nc1ccc2cc1OCCOCCNc1ccn3ncc-2c3n1)c1ccccc1 [compound 34] ... 0.2
2. O=C(NCc1ccccc1C(F)(F)F)Nc1ccc2cc1OCCOCCNc1ccn3ncc-2c3n1 [compound 27] ... 0.4
3. Cc1cc(Cl)ccc1CNC(=O)Nc1ccc2cc1OCCOCCNc1ccn3ncc-2c3n1 [compound 23] ... 0.4
4. COc1ccc(CNC(=O)Nc2ccc3cc2OCCOCCNc2ccn4ncc-3c4n2)cc1 [compound 31] ... 0.6
5. O=C(NCc1ccc(Cl)cc1Cl)Nc1ccc2cc1OCCOCCNc1ccn3ncc-2c3n1 [compound 20] ... 0.9
6. COc1ccccc1CNC(=O)Nc1ccc2cc1OCCOCCNc1ccn3ncc-2c3n1 [compound 29] ... 0.2

Quick one: ΔTm at 10 µM of O=C(NCc1ccc(C(F)(F)F)cc1)Nc1ccc2cc1OCCOCCNc1ccn3ncc-2c3n1 [compound 28] ?
0.6

Fill blank: measured ΔTm at 10 µM of the molecule Cc1ccc(F)cc1CNC(=O)Nc1ccc2cc1OCCOCCNc1ccn3ncc-2c3n1 [compound 26] is ____.
0.5

Look at this molecule and give its reported ΔTm at 10 µM. COc1ccc(CNC(=O)Nc2ccc3cc2OCCOCCNc2ccn4ncc-3c4n2)cc1F [compound 32]
0.5

Give its ΔTm at 10 µM value. Item: O=C(NCc1ccc(Cl)cc1F)Nc1ccc2cc1OCCOCCNc1ccn3ncc-2c3n1 [compound 21]
0

----------
test system: RPS6KA1A; test: DSF Tm panel; type: binding; conditions: 10 μM compound
Catalogue of compounds with associated ΔTm RPS6KA1A

Example entries and their recorded answers appear below.
1) O=C(NCc1ccccc1C(F)(F)F)Nc1ccc2cc1OCCOCCNc1ccn3ncc-2c3n1 [compound 27] ... 0,2 °C
2) O=C(NCc1ccccc1Cl)Nc1ccc2cc1OCCOCCNc1ccn3ncc-2c3n1 [compound 17] ... 1,2 °C
3) Cc1ccc(F)cc1CNC(=O)Nc1ccc2cc1OCCOCCNc1ccn3ncc-2c3n1 [compound 26] ... 0,3 °C

Suppose we examine the compound O=C(NCc1ccc(Cl)cc1Cl)Nc1ccc2cc1OCCOCCNc1ccn3ncc-2c3n1 [compound 20] ; what ΔTm RPS6KA1A value has been reported?
0,9 °C

Which ΔTm RPS6KA1A value is on record for COc1ccc(CNC(=O)Nc2ccc3cc2OCCOCCNc2ccn4ncc-3c4n2)cc1F [compound 32] ?
0,8 °C

Entry Cc1cc(Br)ccc1CNC(=O)Nc1ccc2cc1OCCOCCNc1ccn3ncc-2c3n1 [compound 24] has what ΔTm RPS6KA1A?
0,1 °C

Which ΔTm RPS6KA1A reading was recorded for the compound C[C@H](NC(=O)Nc1ccc2cc1OCCOCCNc1ccn3ncc-2c3n1)c1ccccc1 [compound 34] ?
0,4 °C

Name the reported ΔTm RPS6KA1A value associated with the compound O=C(NCc1ccc(Cl)cc1)Nc1ccc2cc1OCCOCCNc1ccn3ncc-2c3n1 [compound 19]
0,4 °C

Look up ΔTm RPS6KA1A for this compound: CN1CCN(C(=O)Nc2ccc3cc2OCCOCCNc2ccn4ncc-3c4n2)CC1 [compound 35]
0,7 °C

Quick one: ΔTm RPS6KA1A of O=C(NCc1cccc(Cl)c1)Nc1ccc2cc1OCCOCCNc1ccn3ncc-2c3n1 [compound 18] ?
0,7 °C

What value of measured ΔTm RPS6KA1A is listed for O=C(NCc1ccc(Cl)cc1F)Nc1ccc2cc1OCCOCCNc1ccn3ncc-2c3n1 [compound 21] ?
1,1 °C

Data request, read-out ΔTm RPS6KA1A, for COc1ccccc1CNC(=O)Nc1ccc2cc1OCCOCCNc1ccn3ncc-2c3n1 [compound 29]
0,5 °C

# query: ΔTm RPS6KA1A of entry COc1cc(CNC(=O)Nc2ccc3cc2OCCOCCNc2ccn4ncc-3c4n2)ccc1F [compound 33]
0,5 °C

Measured values drawn from paper PMC12621043 for this set.
